I'd be grateful if you could share measured IC50 for these entries.
Molecular target: EZH2 (rPRC2) (Homo sapiens, UniProt Q15910)
Sequence (Q15910 whole entry): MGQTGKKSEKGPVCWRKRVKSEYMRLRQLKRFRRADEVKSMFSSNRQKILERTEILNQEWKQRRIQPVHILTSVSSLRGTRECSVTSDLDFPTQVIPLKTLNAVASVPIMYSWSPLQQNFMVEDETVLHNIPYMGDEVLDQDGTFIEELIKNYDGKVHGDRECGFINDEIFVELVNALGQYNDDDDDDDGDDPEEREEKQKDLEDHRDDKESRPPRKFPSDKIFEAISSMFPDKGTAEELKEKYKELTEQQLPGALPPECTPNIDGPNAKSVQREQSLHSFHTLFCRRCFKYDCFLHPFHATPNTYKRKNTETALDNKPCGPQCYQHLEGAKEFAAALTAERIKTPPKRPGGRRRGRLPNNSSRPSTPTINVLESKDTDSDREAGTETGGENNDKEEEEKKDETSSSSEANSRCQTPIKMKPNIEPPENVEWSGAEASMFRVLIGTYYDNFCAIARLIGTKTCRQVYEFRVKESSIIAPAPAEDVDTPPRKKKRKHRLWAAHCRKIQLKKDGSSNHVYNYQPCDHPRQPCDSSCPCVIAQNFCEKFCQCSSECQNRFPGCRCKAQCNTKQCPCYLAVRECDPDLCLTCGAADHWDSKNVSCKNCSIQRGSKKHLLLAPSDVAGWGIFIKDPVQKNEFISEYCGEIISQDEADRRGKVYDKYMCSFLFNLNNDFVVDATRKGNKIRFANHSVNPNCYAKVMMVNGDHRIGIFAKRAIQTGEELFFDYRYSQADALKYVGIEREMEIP
Sequence (O75530 whole entry partner): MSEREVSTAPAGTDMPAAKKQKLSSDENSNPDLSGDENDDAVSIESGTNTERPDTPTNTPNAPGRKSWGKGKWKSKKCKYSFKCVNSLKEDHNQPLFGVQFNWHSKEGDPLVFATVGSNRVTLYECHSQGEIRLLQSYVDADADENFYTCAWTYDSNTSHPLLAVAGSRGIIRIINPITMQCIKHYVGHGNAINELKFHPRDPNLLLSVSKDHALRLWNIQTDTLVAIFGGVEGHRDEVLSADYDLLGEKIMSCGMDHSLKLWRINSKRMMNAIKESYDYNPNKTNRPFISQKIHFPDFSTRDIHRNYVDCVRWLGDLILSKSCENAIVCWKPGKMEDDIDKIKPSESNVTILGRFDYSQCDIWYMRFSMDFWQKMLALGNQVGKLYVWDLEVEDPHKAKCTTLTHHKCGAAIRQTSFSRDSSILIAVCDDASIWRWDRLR
Sequence (Q15022 whole entry partner): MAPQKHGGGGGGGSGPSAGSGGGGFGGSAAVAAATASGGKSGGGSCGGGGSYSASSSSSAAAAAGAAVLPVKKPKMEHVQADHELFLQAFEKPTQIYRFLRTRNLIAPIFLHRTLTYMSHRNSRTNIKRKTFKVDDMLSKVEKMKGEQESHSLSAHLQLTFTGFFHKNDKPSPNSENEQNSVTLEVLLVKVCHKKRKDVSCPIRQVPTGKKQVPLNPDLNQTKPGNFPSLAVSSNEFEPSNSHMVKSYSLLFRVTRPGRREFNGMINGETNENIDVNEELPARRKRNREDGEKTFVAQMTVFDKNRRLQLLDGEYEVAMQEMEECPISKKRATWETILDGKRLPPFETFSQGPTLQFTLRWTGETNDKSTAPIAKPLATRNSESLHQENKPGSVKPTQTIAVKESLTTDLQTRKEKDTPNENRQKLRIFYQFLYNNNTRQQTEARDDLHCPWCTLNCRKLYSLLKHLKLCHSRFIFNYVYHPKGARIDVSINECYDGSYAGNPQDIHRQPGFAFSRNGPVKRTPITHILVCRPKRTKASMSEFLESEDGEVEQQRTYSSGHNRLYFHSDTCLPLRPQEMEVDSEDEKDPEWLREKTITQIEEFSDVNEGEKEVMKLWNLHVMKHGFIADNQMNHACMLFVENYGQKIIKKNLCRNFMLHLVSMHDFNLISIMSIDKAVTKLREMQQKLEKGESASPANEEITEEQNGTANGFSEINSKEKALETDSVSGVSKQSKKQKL
Experiment: EZH2 assay: rPRC2, biotinylated oligonucleosomes, 3H SAM methyl transfer (FlashPlate scintillation)
Format: biochemical
Conditions: EZH2 IC50, wild-type EZH2 (rPRC2), biotinylated oligonucleosome substrate

Tell me its IC50 on EZH2 (rPRC2) (Homo sapiens, UniProt Q15910): CCOc1cc(C)[nH]c(=O)c1CNC(=O)c1c(C)n(C(C)c2ccccc2)c2cnccc12 (racemic)
< 100 nM

Tell me its IC50 on EZH2 (rPRC2) (Homo sapiens, UniProt Q15910): COC(C)C(C)n1c(C)c(C(=O)NCc2c(C)cc(C)[nH]c2=O)c2cccnc21 (centres unmarked)
< 100 nM

Tell me its IC50 on EZH2 (rPRC2) (Homo sapiens, UniProt Q15910): COc1cc(C)[nH]c(=O)c1CNC(=O)c1c(C)n(C(C)C2CCN(c3ncccn3)CC2)c2ccccc12 (single isomer, unassigned)
< 100 nM

Tell me its IC50 on EZH2 (rPRC2) (Homo sapiens, UniProt Q15910): Cc1cc(C)c(CNC(=O)c2c(C)n(C(C)c3ccccc3)c3cnccc23)c(=O)[nH]1 (racemic) [Compound 203]
< 100 nM

Tell me its IC50 on EZH2 (rPRC2) (Homo sapiens, UniProt Q15910): Cc1cc(C)c(CNC(=O)c2c(C)n(C(C)c3cccc(-c4ccncn4)c3)c3ccccc23)c(=O)[nH]1 (racemic)
100 to 1000 nM

Hey, just so you know, these numbers are from patent US9371331B2.
